Reference source: patent US20230000842A1

- TGT: CLK3 kinase (Homo sapiens, UniProt P49761)
- Sequence (P49761 whole entry): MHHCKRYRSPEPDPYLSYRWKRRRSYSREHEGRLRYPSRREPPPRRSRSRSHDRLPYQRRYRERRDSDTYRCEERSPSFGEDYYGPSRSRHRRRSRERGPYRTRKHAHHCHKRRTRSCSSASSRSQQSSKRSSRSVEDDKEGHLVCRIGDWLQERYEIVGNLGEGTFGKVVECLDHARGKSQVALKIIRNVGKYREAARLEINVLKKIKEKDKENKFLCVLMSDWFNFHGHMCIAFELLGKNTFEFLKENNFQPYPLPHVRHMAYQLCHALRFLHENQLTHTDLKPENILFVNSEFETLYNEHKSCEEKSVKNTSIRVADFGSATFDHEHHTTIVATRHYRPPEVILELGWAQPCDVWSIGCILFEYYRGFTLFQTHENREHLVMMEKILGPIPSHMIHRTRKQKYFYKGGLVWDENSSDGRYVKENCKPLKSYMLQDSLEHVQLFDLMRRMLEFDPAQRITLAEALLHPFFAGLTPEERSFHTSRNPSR
- EXPERIMENTAL DETAILS: CLK3 kinase activity assay (Z-lyte FRET);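 further: kinase activity read as coumarin/fluorescein emission ratio by FRET, unphosphorylated peptide as 0% and phosphorylated peptide as 100% control, values from non-linear regression of dose-response curves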
- CONDITIONS USED: Z-lyte Ser/Thr 18 peptide, 156 μM ATP, 1 h at room temperature
pEC50: −log10 of the molar value.
Tag: satisfied if measured pEC50 is not below 7, not satisfied if it is.

A selection of reference data follows.
* Cc1ccc(-c2cccc3[nH]c(-c4n[nH]c5ccc(-c6cncc(N)c6)nc45)nc23)s1 | satisfied
* COc1cncc(C(=O)Nc2c[nH]nc2C(=O)Nc2ccc(OCCN3CCCC3)nc2)c1 | not satisfied
* Cc1nnc(-c2ccc3cnc(NC(=O)c4ccnc(N(C)C5CCN(C)CC5)c4)cc3c2)s1 | satisfied

Shifting focus to the compound that follows.
Ask | API: above_or_equal(metric=pEC50, cutoff=7) for item `CCCC(=O)Nc1cncc(-c2cnc3[nH]nc(-c4cc5c(-c6cc(F)cc(CNS(C)(=O)=O)c6)cncc5[nH]4)c3c2)c1`
Reply | satisfied
